// values below are IC50; system is human factor XIa (Homo sapiens, UniProt P03951)
Sequence (P03951 388-625 limits assumed): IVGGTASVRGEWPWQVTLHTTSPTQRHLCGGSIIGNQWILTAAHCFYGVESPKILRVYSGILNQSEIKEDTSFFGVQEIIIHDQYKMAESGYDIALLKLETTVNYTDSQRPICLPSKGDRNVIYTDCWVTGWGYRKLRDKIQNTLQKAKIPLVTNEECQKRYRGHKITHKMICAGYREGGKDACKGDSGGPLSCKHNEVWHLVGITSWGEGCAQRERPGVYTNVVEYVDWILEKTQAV
Sequence (P03951 19-387 partner limits assumed): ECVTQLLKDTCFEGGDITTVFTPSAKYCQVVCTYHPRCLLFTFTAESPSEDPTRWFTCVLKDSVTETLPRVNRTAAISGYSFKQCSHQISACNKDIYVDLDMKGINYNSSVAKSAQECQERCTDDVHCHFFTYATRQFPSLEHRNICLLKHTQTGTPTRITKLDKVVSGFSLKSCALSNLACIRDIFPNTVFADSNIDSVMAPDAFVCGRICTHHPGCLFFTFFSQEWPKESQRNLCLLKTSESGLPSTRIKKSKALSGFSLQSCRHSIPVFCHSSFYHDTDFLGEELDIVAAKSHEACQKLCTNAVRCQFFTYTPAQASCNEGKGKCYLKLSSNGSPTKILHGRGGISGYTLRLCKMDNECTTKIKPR
Counter-ions that a name gives are not always drawn.
Give bare numbers, in nM.

Worked examples, 3 compounds total:
# compound, studyTarget, outputUnit, IC50
data = [
    ("Cc1cc(C(=O)N[C@H]2CC[C@H](O)CC2)ccc1-c1ccc(C[C@@H](NC(=O)[C@H]2CC[C@H](CN)CC2)C(=O)Nc2ccc(-c3nnc(C(F)(F)C(F)(F)C(=O)O)[nH]3)cc2)cc1 (single isomer, unassigned; enantiomer 2)", "human factor XIa (Homo sapiens, UniProt P03951)", "nM", 65),
    ("Cc1cc(C(=O)NC(C)C)ccc1-c1ccc(C[C@H](NC(=O)[C@H]2CC[C@H](CN)CC2)C(=O)Nc2ccc(-c3nnc(CCC(=O)O)[nH]3)cc2)cc1 [Example 157, hydrochloride]", "human factor XIa (Homo sapiens, UniProt P03951)", "nM", 3.6),
    ("CCN(CC)CCNC(=O)c1ccc(-c2ccc(C[C@H](NC(=O)[C@H]3CC[C@H](CN)CC3)C(=O)Nc3ccc4c(=O)[nH][nH]c4c3)cc2)c(C)c1 [Example 23, hydrochloride]", "human factor XIa (Homo sapiens, UniProt P03951)", "nM", 27.5),
]

Provide IC50 values for the following items, in order.
1. Cc1cc(C(=O)NC2CCN(C)CC2)ccc1-c1ccc(C[C@H](NC(=O)[C@H]2CC[C@H](CN)CC2)C(=O)Nc2ccc(-c3nc(C(F)(F)C(F)(F)CO)n[nH]3)cc2)cc1 [Example 109, hydrochloride]
2. Cc1cc(C(=O)NC2CCC(N(C)Cc3ccccc3)CC2)ccc1-c1ccc(C[C@H](NC(=O)[C@H]2CC[C@H](CN)CC2)C(=O)Nc2ccc(-c3nnn[nH]3)cc2)cc1 (stereo partly shown) [Example 146, hydrochloride]
3. Cc1cc(C(=O)NCCN)ccc1-c1ccc(C[C@H](NC(=O)[C@H]2CC[C@H](CN)CC2)C(=O)Nc2ccc(-c3nn[nH]n3)cc2)cc1 [Example 15, hydrochloride]
4. Cc1cc(C(=O)N[C@H]2CC[C@H](N)CC2)ccc1-c1ccc(C[C@H](NC(=O)[C@H]2CC[C@H](CN)CC2)C(=O)Nc2ccc(-c3nn[nH]n3)cc2)cc1 [Example 34, hydrochloride]

output:
[3, 1.8, 2.9, 1.4]

----------
# studyTarget: human factor XIa (Homo sapiens)
Structures can show the parent of a compound that is named as a salt.
Checkbox rule: IC50 lower than 5 nM = y; IC50 not lower than 5 nM = n.

Examples from the recorded data:
# molecule, qualitativeLabel
rows = [
    ("Cc1cc(C(=O)NC2CCC2)ccc1-c1ccc(C[C@H](NC(=O)[C@H]2CC[C@H](CN)CC2)C(=O)Nc2ccc3cc(C(=O)O)[nH]c3c2)cc1 [Example 160, hydrochloride]", "n"),
    ("COc1cc(C(=O)NC2CCN(C)CC2)cc(OC)c1-c1ccc(C[C@H](NC(=O)[C@H]2CC[C@H](CN)CC2)C(=O)Nc2ccc(-c3nn[nH]n3)cc2)cc1 [Example 117, hydrochloride]", "n"),
    ("Cc1cc(C(=O)NC(C)C)ccc1-c1ccc(C[C@H](NC(=O)[C@H]2CC[C@H](CN)CC2)C(=O)Nc2ccc(-c3nn[nH]n3)cc2)cc1 [Example 7, hydrochloride]", "y"),
    ("CCN(CC)CCNC(=O)c1ccc(-c2ccc(C[C@H](NC(=O)[C@H]3CC[C@H](CN)CC3)C(=O)Nc3ccc(-c4nn[nH]n4)cc3)cc2)c(Cl)c1 [Example 10, hydrochloride]", "y"),
]

Let's switch to this molecule now.
input: Please state whether IC50 is below 5 nM for COCCOCCOCCOCCNC(=O)c1ccc(-c2ccc(C[C@H](NC(=O)[C@H]3CC[C@H](CN)CC3)C(=O)Nc3ccc4c(=O)[nH][nH]c4c3)cc2)c(C)c1 [Example 28, hydrochloride]
output: n
